Biological target: Muscarinic acetylcholine receptor M2 and M4 (Homo sapiens) (UniProt P08173+P08172)
Assay: Selectivity ratio of Ki for human muscarinic M4 receptor expressed in CHO-K9 cells to Ki for human muscarinic M2 receptor expressed in CHO-K9 cells
Format: cell-based
readout label: Ratio Ki
Just the number.

Worked set:
CC(=O)N[C@@H](CCCNC(=N)N)C(=O)N[C@@H](CCCCN)C(=O)NCCCCC1CCN(CC(=O)N2c3ccccc3NC(=O)c3ccccc32)CC1 :: 17
CN1CC=C(c2nsnc2OCCCN2CCN(CCCCC3CCN(CC(=O)N4c5ccccc5NC(=O)c5ccccc54)CC3)CC2)CC1 :: 35
N=C(N)NCCC[C@H](N)C(=O)NCCCCC1CCN(CC(=O)N2c3ccccc3NC(=O)c3ccccc32)CC1 :: 9.8
CC(=O)N[C@@H](Cc1c[nH]c2ccccc12)C(=O)N[C@@H](Cc1ccc(O)cc1)C(=O)NCCN1CCN(CCCCC2CCN(CC(=O)N3c4ccccc4NC(=O)c4ccccc43)CC2)CC1 :: 7
CC(=O)N[C@@H](CCC(N)=O)C(=O)N[C@@H](CC(C)C)C(=O)NCCCCC1CCN(CC(=O)N2c3ccccc3NC(=O)c3ccccc32)CC1 :: 3.6

Continue with the next molecule.
Q. Return reported Ratio Ki; argument: CC(=O)N[C@@H](CCCCN)C(=O)N[C@@H](CCCNC(=N)N)C(=O)NCCCCC1CCN(CC(=O)N2c3ccccc3NC(=O)c3ccccc32)CC1
A. 60

* * *

Target: Muscarinic acetylcholine receptor M1 (Homo sapiens, UniProt P11229)
Assay: Displacement of [3H]-NMS from human muscarinic M1 receptor expressed in CHO-K9 cells after 3 hrs by microbeta2 scintillation counting method
Format: cell-based
readout label: pKi
pKi is defined as minus the log10 of a concentration measured in mol/L.

Worked set:
CC(=O)N[C@@H](CCCNC(=N)N)C(=O)N[C@@H](CCCNC(=N)N)C(=O)NCCCCC1CCN(CC(=O)N2c3ccccc3NC(=O)c3ccccc32)CC1 :: 7.70
N=C(N)NCCC[C@H](N)C(=O)NCCCCC1CCN(CC(=O)N2c3ccccc3NC(=O)c3ccccc32)CC1 :: 6.97
CC(=O)N[C@@H](Cc1c[nH]c2ccccc12)C(=O)N[C@@H](C)C(=O)N[C@@H](Cc1ccc(O)cc1)C(=O)NCCN1CCN(CCCCC2CCN(CC(=O)N3c4ccccc4NC(=O)c4ccccc43)CC2)CC1 :: 8.64
CC(=O)N[C@@H](Cc1c[nH]c2ccccc12)C(=O)N[C@@H](Cc1ccc(O)cc1)C(=O)NCCN1CCN(CCCCC2CCN(CC(=O)N3c4ccccc4NC(=O)c4ccccc43)CC2)CC1 :: 9.06
CC(=O)N[C@@H](Cc1ccc(O)cc1)C(=O)N[C@@H](C)C(=O)N[C@@H](CCCCN)C(=O)NCCN1CCN(CCCCC2CCN(CC(=O)N3c4ccccc4NC(=O)c4ccccc43)CC2)CC1 :: 8.63

Continue with the next compound.
Q. Return reported pKi; argument: CC(=O)N[C@@H](CCCCN)C(=O)N[C@@H](CCCNC(=N)N)C(=O)NCC(=O)NCCCCC1CCN(CC(=O)N2c3ccccc3NC(=O)c3ccccc32)CC1
A. 7.49

* * *

Target: Muscarinic acetylcholine receptor M1 (Homo sapiens)
Sequence (P11229 whole entry): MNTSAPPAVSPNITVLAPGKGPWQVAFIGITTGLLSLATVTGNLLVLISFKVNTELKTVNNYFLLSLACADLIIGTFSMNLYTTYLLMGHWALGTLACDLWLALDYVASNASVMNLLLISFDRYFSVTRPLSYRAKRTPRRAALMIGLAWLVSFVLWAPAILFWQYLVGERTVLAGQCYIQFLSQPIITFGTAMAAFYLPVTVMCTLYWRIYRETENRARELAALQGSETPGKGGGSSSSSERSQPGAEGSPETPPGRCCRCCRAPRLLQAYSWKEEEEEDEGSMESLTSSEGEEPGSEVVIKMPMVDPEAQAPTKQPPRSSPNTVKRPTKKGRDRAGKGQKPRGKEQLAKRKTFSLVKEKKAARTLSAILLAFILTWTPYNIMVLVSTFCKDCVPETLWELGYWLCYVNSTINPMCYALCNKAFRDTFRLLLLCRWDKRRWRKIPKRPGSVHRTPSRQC
Experiment: Displacement of [3H]-NMS from human muscarinic M1 receptor expressed in CHO-K9 cells after 3 hrs by microbeta2 scintillation counting method
Assay type: cell-based
Catalogue of molecules with associated pKi
pKi is defined as minus the log10 of a concentration measured in mol/L.

Q. Return reported pKi; argument: CC(=O)N[C@@H](CCCCN)C(=O)N[C@@H](C)C(=O)N[C@@H](Cc1ccc(O)cc1)C(=O)NCCCCC1CCN(CC(=O)N2c3ccccc3NC(=O)c3ccccc32)CC1
A. 7.23

Q. Return reported pKi; argument: CC(=O)N[C@@H](Cc1ccc(O)cc1)C(=O)N[C@@H](CCCCN)C(=O)NCCN1CCN(CCCCC2CCN(CC(=O)N3c4ccccc4NC(=O)c4ccccc43)CC2)CC1
A. 8.67

Q. Return reported pKi; argument: CC(=O)N[C@@H](CCCNC(=N)N)C(=O)N[C@@H](CCCCN)C(=O)NCC(=O)NCCCCC1CCN(CC(=O)N2c3ccccc3NC(=O)c3ccccc32)CC1
A. 7.64

Q. Return reported pKi; argument: CC(=O)N[C@@H](Cc1ccc(O)cc1)C(=O)N[C@@H](CCCCN)C(=O)NCCCCC1CCN(CC(=O)N2c3ccccc3NC(=O)c3ccccc32)CC1
A. 7.06

Q. Return reported pKi; argument: CC(=O)N[C@@H](CCCCN)C(=O)N[C@@H](C)C(=O)N[C@@H](CCCNC(=N)N)C(=O)NCCN1CCN(CCCCC2CCN(CC(=O)N3c4ccccc4NC(=O)c4ccccc43)CC2)CC1
A. 8.64

Q. Return reported pKi; argument: CCC(=O)NCCCCC1CCN(CC(=O)N2c3ccccc3NC(=O)c3ccccc32)CC1
A. 7.07

* * *

Target: Muscarinic acetylcholine receptor M3 (Homo sapiens)
Experiment: Displacement of [3H]-NMS from muscarinic M3 receptor (unknown origin) expressed in mouse A9L cell membranes after 60 mins by scintillation counting method
readout label: Ki (nM)
Output spec: scalar in nM, unitless text.

Q. Entry CCN(CC)CCCCC1CCN(CC(=O)N2c3ccccc3NC(=O)c3ccccc32)CC1 , system Muscarinic acetylcholine receptor M3 (Homo sapiens): what Ki was measured?
A. 10

* * *

Biological target: Muscarinic acetylcholine receptor M3 (Homo sapiens, UniProt P20309)
Sequence (P20309 whole entry): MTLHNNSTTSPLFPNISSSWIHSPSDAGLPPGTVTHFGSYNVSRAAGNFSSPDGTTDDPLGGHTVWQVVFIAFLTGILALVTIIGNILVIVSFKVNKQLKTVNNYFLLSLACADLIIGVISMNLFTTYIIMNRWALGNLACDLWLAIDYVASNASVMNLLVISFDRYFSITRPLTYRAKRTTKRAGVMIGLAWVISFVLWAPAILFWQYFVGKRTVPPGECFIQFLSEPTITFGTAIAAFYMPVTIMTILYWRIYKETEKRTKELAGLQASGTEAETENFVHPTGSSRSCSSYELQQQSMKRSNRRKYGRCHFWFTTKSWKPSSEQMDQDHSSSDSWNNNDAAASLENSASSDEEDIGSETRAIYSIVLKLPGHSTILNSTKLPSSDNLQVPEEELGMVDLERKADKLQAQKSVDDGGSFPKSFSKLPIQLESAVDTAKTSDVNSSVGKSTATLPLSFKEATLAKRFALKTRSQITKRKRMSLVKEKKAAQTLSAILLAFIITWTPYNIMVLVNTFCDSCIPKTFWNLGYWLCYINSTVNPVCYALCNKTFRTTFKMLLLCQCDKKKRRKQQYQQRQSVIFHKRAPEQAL
Assay: Displacement of [3H]-NMS from human muscarinic M3 receptor expressed in CHO-K9 cells after 3 hrs by microbeta2 scintillation counting method
Format: cell-based
readout label: Ki (nM)
Output spec: scalar in nM, unitless text.

CC(=O)N[C@@H](Cc1ccc(O)cc1)C(=O)N[C@@H](C)C(=O)N[C@@H](CCCCN)C(=O)NCCCCC1CCN(CC(=O)N2c3ccccc3NC(=O)c3ccccc32)CC1 :: 5010
CC(=O)N[C@@H](C)C(=O)N[C@@H](C)C(=O)NCCN1CCN(CCCCC2CCN(CC(=O)N3c4ccccc4NC(=O)c4ccccc43)CC2)CC1 :: 155
CCC(=O)NCCCCC1CCN(CC(=O)N2c3ccccc3NC(=O)c3ccccc32)CC1 :: 5370

Continue with the next compound.
Q. Return reported Ki; argument: CC(=O)N[C@@H](CCCCN)C(=O)N[C@@H](CCCNC(=N)N)C(=O)NCCN1CCN(CCCCC2CCN(CC(=O)N3c4ccccc4NC(=O)c4ccccc43)CC2)CC1
A. 49

* * *

Molecular target: Muscarinic acetylcholine receptor M4 (Homo sapiens)
Sequence (P08173 whole entry): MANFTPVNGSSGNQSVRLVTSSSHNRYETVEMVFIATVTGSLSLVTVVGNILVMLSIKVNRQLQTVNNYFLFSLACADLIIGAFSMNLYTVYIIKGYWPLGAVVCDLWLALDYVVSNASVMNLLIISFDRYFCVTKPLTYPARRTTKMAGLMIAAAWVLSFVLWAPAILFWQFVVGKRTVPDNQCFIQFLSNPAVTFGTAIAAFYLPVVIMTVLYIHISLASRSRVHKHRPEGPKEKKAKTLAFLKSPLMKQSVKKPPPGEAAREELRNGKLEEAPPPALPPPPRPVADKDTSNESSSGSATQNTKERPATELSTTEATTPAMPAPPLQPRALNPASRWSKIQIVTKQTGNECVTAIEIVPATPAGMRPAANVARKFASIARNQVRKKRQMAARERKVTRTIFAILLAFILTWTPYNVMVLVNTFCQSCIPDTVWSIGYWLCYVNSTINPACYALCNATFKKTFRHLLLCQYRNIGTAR
Test: Displacement of [3H]-NMS from human muscarinic M4 receptor expressed in CHO-K9 cells after 3 hrs by microbeta2 scintillation counting method
Type: cell-based
readout label: Ki (nM)
Output spec: scalar in nM, unitless text.

CC(=O)N[C@@H](CCCNC(=N)N)C(=O)N[C@@H](CCCNC(=N)N)C(=O)NCCCCC1CCN(CC(=O)N2c3ccccc3NC(=O)c3ccccc32)CC1 :: 29.5

Q. Return reported Ki; argument: CC(=O)N[C@@H](C)C(=O)N[C@@H](C)C(=O)NCCCCC1CCN(CC(=O)N2c3ccccc3NC(=O)c3ccccc32)CC1
A. 79.4

Q. Return reported Ki; argument: CC(=O)N[C@@H](Cc1c[nH]c2ccccc12)C(=O)N[C@@H](C)C(=O)N[C@@H](Cc1ccc(O)cc1)C(=O)NCCCCC1CCN(CC(=O)N2c3ccccc3NC(=O)c3ccccc32)CC1
A. 37.2

Q. Return reported Ki; argument: CC(=O)N[C@@H](CCCNC(=N)N)C(=O)N[C@@H](CCCCN)C(=O)NCCCCC1CCN(CC(=O)N2c3ccccc3NC(=O)c3ccccc32)CC1
A. 257

Q. Return reported Ki; argument: CC(=O)N[C@@H](Cc1c[nH]c2ccccc12)C(=O)N[C@@H](Cc1ccc(O)cc1)C(=O)NCCN1CCN(CCCCC2CCN(CC(=O)N3c4ccccc4NC(=O)c4ccccc43)CC2)CC1
A. 1.07

Q. Return reported Ki; argument: CC(=O)N[C@@H](C)C(=O)N[C@@H](C)C(=O)NCCN1CCN(CCCCC2CCN(CC(=O)N3c4ccccc4NC(=O)c4ccccc43)CC2)CC1
A. 2.45
